- MEASURED_TARGET: T1, human CEACAM5 expressed on the surface of tumor cells (human, UniProt P06731 35-685)
- T1 construct: Endogenous CEACAM5 of human tumor cells; also called hCEACAM5 on MKN45 cells; CEACAM5 on CR-IGR-034P primary colon tumor cells
- T1 sequence: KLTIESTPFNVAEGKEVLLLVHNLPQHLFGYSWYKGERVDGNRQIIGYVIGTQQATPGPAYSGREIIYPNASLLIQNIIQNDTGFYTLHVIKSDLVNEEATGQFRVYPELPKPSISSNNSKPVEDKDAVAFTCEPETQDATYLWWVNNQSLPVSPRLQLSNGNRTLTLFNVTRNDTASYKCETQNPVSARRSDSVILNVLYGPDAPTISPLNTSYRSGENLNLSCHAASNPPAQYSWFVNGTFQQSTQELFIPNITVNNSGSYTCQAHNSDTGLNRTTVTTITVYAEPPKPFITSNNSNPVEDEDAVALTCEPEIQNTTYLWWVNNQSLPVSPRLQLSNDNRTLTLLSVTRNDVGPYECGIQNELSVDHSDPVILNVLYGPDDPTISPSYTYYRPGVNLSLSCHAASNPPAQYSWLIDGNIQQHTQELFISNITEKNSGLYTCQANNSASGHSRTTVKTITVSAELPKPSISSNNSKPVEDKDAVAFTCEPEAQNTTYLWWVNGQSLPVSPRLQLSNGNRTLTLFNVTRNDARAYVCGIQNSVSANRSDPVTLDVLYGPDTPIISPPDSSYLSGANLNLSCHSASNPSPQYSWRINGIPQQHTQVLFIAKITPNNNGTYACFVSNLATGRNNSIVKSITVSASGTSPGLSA
- RUN_DESCRIPTION: flow cytometry on CR-IGR-034P primary colon tumor cells
- Method: Advanced human primary colon tumor CR-IGR-034P (Julien et al., Clin Cancer Res Oct. 1, 2012 18:5314-5328) was obtained from Patient-derived xenograft in mice. […] The antibody binding was evaluated after centrifugation and resuspension of cells by adding 200 pliwell PBS 1% BSA and read using Guava® easyCyte™ 8HT Flow Cytometry System. […]
Labelling: EC50 reported below 1 nM becomes Condition met; at or above becomes Condition not met.

Req: Dear reviewer, please state whether antibody MAb3 (antibody, IgG1, V domains shown, Murine monoclonal from hybridoma, IgG1, kappa) VH: EVKLVESGGGLVKPGGSLTLPCAASGFTFSRYAMSWVRQTPEKRLEWVASISSGGDTYYPDSVKGRFTVSRDNARNILFLQMSSLRSEDTGMYYCARVNYYDSSFLDWWGQGTTLTVSS VL: DIVMTQSQRFMSTLEGDRVSVTCKASQNVGTNVAWYQQKPGQSPKALIYSASYRYSGVPDRFTGSGSGTDFTLTISNVQSEDLAEYFCQQYNNYPLYTFGGGTKLEIK has EC50 strictly beneath 1 nM.
Resp: Condition not met

Req: Dear reviewer, please state whether antibody MAb4 (antibody, IgG1, V domains shown, Murine monoclonal from hybridoma, IgG1, kappa) VH: EVQLVESGGGLVKPGGSLKLSCAASGFTFSSYDMSWVRQTPEKRLEWVAFISSYGGRTYYADTVKGRFTISRDNAKNTLYLQMSSLKSEDTAMFYCAAHYFGTSGPFAYWGQGTLVTVSA VL: DIQMTQSPASLSASVGETVTITCRASENIYSYFAWYQQKQGKSPQLLVYNAKILAEGVPSRFSGSGSGTQFSLKINSLQPEDFGTYYCQHHYGIPFTFGSGTKLELK has EC50 strictly beneath 1 nM.
Resp: Condition met

Req: Dear reviewer, please state whether antibody MAb5 (antibody, IgG1, V domains shown, Murine monoclonal from hybridoma, IgG1, kappa) VH: ELQLVESGGVLVKPGGSLKLSCAASGFAFSSYDMSWVRQTPEKRLEWVTYINSGGGITYYPDTVKGRFTISRDNARNTLYLQMSSLKSEDTAIYYCTAHYFGSSGPFAYWGQGTLVTVSA VL: DIQMTQSPASLSASVGETVTITCRASENIYSYLAWYQQKQGKSPQLLVYNAKTLTEGVPSRFSGSGSGTQFSLKINSLQPEDFGSYYCQHHYGTPFTFGSGTKLEIK has EC50 strictly beneath 1 nM.
Resp: Condition not met

Req: Dear reviewer, please state whether antibody MAb2 (antibody, mouse IgG1, V domains shown, Murine IgG1, kappa; Rows are tied to the label as printed) VH: EVQLQESGGVLVKPGGSLKLSCAASGFVFSSYDMSWVRQTPEKRLEWVAYISSGGGITYFPDTVQGRFTVSRDNAKNTLYLQMNSLKSEDTAIYYCAAHYFGSSGPFAYWGQGTLVTVSA VL: DIQMTQSPASLSASVGETVTITCRASENIFSYLAWYQQKQGKSPQLLVYNTKTLAEGVPSRFSGSGSGTQFSLKINSLQPEDFGSYYCQHHYGTPFTFGSGTKLEIK has EC50 strictly beneath 1 nM.
Resp: Condition met
